- System: BT-549 breast
- EXPERIMENTAL_DETAILS: NCI-60 one-dose screen, 48 h (100 = growth as untreated, 0 = no growth, -100 = all killed)
- STUDY_CONDITIONS: 10 µM unless noted
About 83,000 compounds went through this panel and 20% of them were active in at least one assay; those are over-represented in the sample as a whole.
The threshold is inclusive: growth of exactly 40% counts as yes (1); values below receive no (0).

Request: API: above_or_equal(metric=growth, cutoff=40%) for item `CC1CCN(C(=S)SCC(=O)NC(=O)c2ccccc2)CC1`
Result: yes (1)

Request: API: above_or_equal(metric=growth, cutoff=40%) for item `COc1cccc(CCNc2ncnc3c2ncn3Cc2nnc3c4ccccc4c(Cl)nn23)c1`
Result: yes (1)

Request: API: above_or_equal(metric=growth, cutoff=40%) for item `COc1cc2c(cc1OCCCCN1CCN(C(=S)SCCC(C#N)(c3ccccc3)c3ccccc3)CC1)N=C[C@@H]1CCCN1C2=O`
Result: no (0)

Request: API: above_or_equal(metric=growth, cutoff=40%) for item `N=C(N)c1ccc(-c2ccc(-c3cc(Cl)cc(Cl)c3)s2)nc1`
Result: yes (1)

====

- Test system: OVCAR-5 ovarian
- EXPERIMENTAL_DETAILS: NCI-60 one-dose screen, 48 h (100 = growth as untreated, 0 = no growth, -100 = all killed)
- STUDY_CONDITIONS: 10 µM unless noted
This is part of a sample that, as a whole, favours compounds with a hit. Of some 83,000 tested, about 20% had one in any assay.
TEST_READOUT: growth (%)
The response must be a number in % with no trailing unit.

Request: For `CC1(C)CC[C@]2(CO)CC[C@]3(C)[C@H](CC[C@@H]4[C@@]5(C)CCCNC(C)(C)[C@@H]5CC[C@]43C)[C@H]2[C@H]1O` , what is its reported growth?
Result: 92.8

Request: For `FC(F)(F)Oc1cccc(-c2cnc3ccc(-c4ccncc4)nn23)c1` , what is its reported growth?
Result: 16.5

Request: For `Cc1ccc(-c2csc(N(C(=O)N3CCN(c4cc5c(cc4F)c(=O)c(C(=O)O)cn5C4CC4)CC3)c3ccccc3)n2)cc1` , what is its reported growth?
Result: 13.2

Request: For `Cn1cc(-c2nn3cc(-c4cccs4)nc3s2)c2cc(F)ccc21` , what is its reported growth?
Result: 42.7

Request: For `Cc1ccc(C)c(/C=C2\CN(C(=O)OC(C)(C)C)C/C(=C\c3cc(C)ccc3C)C2=O)c1` , what is its reported growth?
Result: 86.1

Request: For `CCOC(=O)c1cc(C(=O)c2cc(OC)c(OC)c(OC)c2)n2ccccc12` , what is its reported growth?
Result: 71.5

Request: For `C[C@H](CCCC(=O)NCC#CCN1CCN(C)CC1)[C@H]1CC[C@H]2[C@@H]3CC[C@@H]4CC(=O)CC[C@]4(C)[C@H]3CC[C@]12C` , what is its reported growth?
Result: 93.3

Request: For `CCSc1oc(C)nc1[P+](c1ccccc1)(c1ccccc1)c1ccccc1` , what is its reported growth?
Result: 69.2

Request: For `CC1(C)OB(O)c2cc(-c3nc4ccc5[nH]ncc5c4c4c3CCCC4)ccc21` , what is its reported growth?
Result: 105

Request: For `O=S(=O)(Oc1ccc(Br)cc1)c1ccc(Cl)cc1` , what is its reported growth?
Result: 92.5

Request: For `CN(CCC(=O)c1ccccc1)CCC(=O)c1ccccc1` , what is its reported growth?
Result: 95.5

Request: For `COc1ccc(-c2ccc(-c3ccc(C(=N)N)nc3)s2)cc1Cl` , what is its reported growth?
Result: -37.6

Request: For `COc1cc2c(cc1OCCCCN1CCN(C(=S)SCCC(C#N)(c3ccccc3)c3ccccc3)CC1)N=C[C@@H]1CCCN1C2=O` , what is its reported growth?
Result: -17.1

Request: For `Ic1ccccc1I` , what is its reported growth?
Result: 98

Request: For CNC1=C([N+](=O)[O-])C(c2ccc(OC)cc2)C(C#N)=C(c2cccs2)O1 (centres undefined) , what is its reported growth?
Result: 108

Request: For C=C(CNCCO)[C@@H]1CC[C@]2(CO)CC[C@]3(C)[C@H](CC[C@@H]4[C@@]5(C)CCC(N)C(C)(C)[C@@H]5CC[C@]43C)[C@@H]12 (some centres undefined) , what is its reported growth?
Result: 81.6

Request: For `CC1(C)CC(=O)c2c(nn(-c3ccc(Br)cc3)c2-c2cn(-c3ccccc3)nc2-c2cccnc2)C1` , what is its reported growth?
Result: 106

Request: For `COc1cc(C(=O)c2c(-c3ccccc3)oc3c(OC)cccc23)cc(OC)c1OC` , what is its reported growth?
Result: 39.8

Request: For `COC1=C(C)C(=O)N2[C@@H]1[C@H](c1ccccc1)OC21C=CC(=O)C=C1` , what is its reported growth?
Result: -56.1

====

- System: MDA-MB-435 melanoma
- EXPERIMENTAL_DETAILS: NCI-60 one-dose screen, 48 h (100 = growth as untreated, 0 = no growth, -100 = all killed)
- STUDY_CONDITIONS: 10 µM unless noted
- Protocol: Growth inhibition of the MDA-MB-435 human Melanoma tumor cell line is measured as a screen for anti-cancer activity. Cells are grown in 96 well plates and exposed to the test compound for 48 hours. Compounds are tested at a single concentration, which is 10^-5 M for most compounds. The reported endpoint is percent growth (GI% or GIPRCNT), where numbers from 0 - 100% represent growth inhibition, and numbers from -100% - 0 represent cell death. […]
This is part of a sample that, as a whole, favours compounds with a hit. Of some 83,000 tested, about 20% had one in any assay. The source made the active and inactive calls. How the source made its calls: active means growth percent below 10; inactive means the rest.
Can you tell me growth for the items I'm about to list?

Request: For `N#C/C(=C\c1ccc([N+](=O)[O-])cc1)n1nnc2cc(F)c(F)cc21` , what is its reported growth?
Result: 41.1% (inactive)

Request: For COc1ccc(C2=NN(C(C)=O)C(c3cn(-c4ccccc4)nc3-c3ccc(Cl)cc3)C2)cc1 (centres undefined) , what is its reported growth?
Result: 34.2% (inactive)

Request: For `C=C1C(=O)O[C@H]2[C@H]1CC/C(COC(=O)CSCSCC(=O)OC/C1=C/CC[C@@]3(C)O[C@H]3[C@H]3OC(=O)C(=C)[C@@H]3CC1)=C\CC[C@@]1(C)O[C@@H]21` , what is its reported growth?
Result: 26.6% (inactive)

Request: For `Cc1c2cccnc2c(C)c2c1c1cc(CO)ccc1n2C` , what is its reported growth?
Result: 22.6% (inactive)

====

- Test system: SF-295 CNS
- EXPERIMENTAL_DETAILS: NCI-60 one-dose screen, 48 h
- STUDY_CONDITIONS: 10 µM unless noted
- Experimental: Cells are grown in 96 well plates and exposed to the test compound for 48 hours. Compounds are tested at a single concentration, which is 10^-5 M for most compounds. The reported endpoint is percent growth (GI% or GIPRCNT), where numbers from 0 - 100% represent growth inhibition, and numbers from -100% - 0 represent cell death. For example, a value of 40 represents 60% growth inhibition. A value of 0 means no net growth occurred over the course of the experiment. […]
The panel holds about 83,000 compounds, 20% with a hit somewhere; the sample as a whole holds those more often. Active and inactive are the calls of the source. The calls were made as follows: active = growth percent below 10; inactive = the rest.
Outcomes you can answer with include only these: YES (active), NO (inactive)

Request: Could you please tell me the result logged for `S=c1[nH]c(=S)c2c(-c3ccccc3)c(-c3ccccc3)oc2[nH]1` in this assay?
Result: NO

Request: Could you please tell me the result logged for `CCOC(=O)C1=C(C)C(Cl)=N/C1=C\c1[nH]c(Cl)c(C)c1C(=O)OCC` in this assay?
Result: NO

Request: Could you please tell me the result logged for `O=S(=O)(Oc1ccc(Br)cc1)c1ccc(Cl)cc1` in this assay?
Result: NO

Request: Could you please tell me the result logged for `COc1cc(C2C(C(=O)OCc3ccccc3)=C(C)NC(C)=C2C(=O)OCc2ccccc2)cc(OC)c1OC` in this assay?
Result: NO

Request: Could you please tell me the result logged for CNC1=C([N+](=O)[O-])C(c2ccc(OC)cc2)C(C#N)=C(c2cccs2)O1 (centres undefined) in this assay?
Result: NO

Request: Could you please tell me the result logged for Cc1ccc(C2CC(c3nc(-c4ccc(Cl)cc4)oc3C)=NN2C(=O)c2ccncc2)cc1 (centres undefined) in this assay?
Result: NO

Request: Could you please tell me the result logged for `CO[C@H]1CC(=O)n2c3ccccc3c3c4c(c5c6ccccc6n1c5c32)C(=O)NC4=O` in this assay?
Result: NO

Request: Could you please tell me the result logged for `Cc1cccc(Oc2ccc(Nc3ncnc4ccc(NC(=O)CN5CCN(C)CC5)cc34)cc2Cl)c1` in this assay?
Result: NO

Request: Could you please tell me the result logged for `COc1cc(-c2nc3cc(Cl)c(Cl)cc3[nH]2)ccc1OCC(=O)N=Nc1c(O)[nH]c2ccc(Cl)cc12` in this assay?
Result: YES

Request: Could you please tell me the result logged for `CSc1nc(C)c([N+](=O)[O-])c(N)n1` in this assay?
Result: NO

Request: Could you please tell me the result logged for `O=C1/C=C/[C@@H](O)[C@@H]2C[C@@H](O)C[C@H]2/C=C/CCC[C@@H](O)CCO1` in this assay?
Result: NO

Request: Could you please tell me the result logged for `Cc1c(Cl)cccc1C(=O)Nc1nc2c(s1)CN(C(=O)c1ccc(C(F)(F)F)cc1)CC2` in this assay?
Result: NO

Request: Could you please tell me the result logged for `O=C(Cn1nnc2ccccc21)N/N=C/c1c[nH]c2ccccc12` in this assay?
Result: NO

Request: Could you please tell me the result logged for `CC/C=C\C[C@H](O)C/C=C1/C(=O)C=C[C@@H]1C/C=C\CCCC(=O)O` in this assay?
Result: NO

Request: Could you please tell me the result logged for C=C1CC[C@@H]2[C@](C)(COC(C)=O)[C@H](OC(C)=O)CC[C@@]2(C)[C@@H]1CC(Nc1ccc(S(=O)(=O)NC(C)=O)cc1)C1=CCOC1=O (some centres undefined) in this assay?
Result: NO

Request: Could you please tell me the result logged for `CC(=O)c1sc2sc(C(C)=O)c(C)c2c1C` in this assay?
Result: NO

Request: Could you please tell me the result logged for `COc1ccc(C(=O)/C=C/c2ccc(Cl)cc2)cc1S(=O)(=O)Nc1c(N)nc(SC)[nH]c1=O` in this assay?
Result: NO

Request: Could you please tell me the result logged for `COc1cccc(CNc2c3ccccc3nc3ccccc23)c1` in this assay?
Result: NO

Request: Could you please tell me the result logged for `CN1C(=O)/C(=C/c2ccc(C(=O)Nc3ncc(Cc4cccc(Cl)c4)s3)cc2)SC1=S` in this assay?
Result: NO
